Taken from patent US20260116991A1.

Assign OD450 nm to each entry below.
Target: T1, polypeptide GC3pep (human)
T1 construct: also called membrane proximal polypeptide GC3pep
T1 peptide: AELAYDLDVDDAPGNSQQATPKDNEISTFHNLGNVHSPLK
Assay: ELISA, GC3pep coated, antibody 1 nM;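 note: bound antibody detected with an HRP-conjugated secondary antibody and TMB substrate, reaction stopped with HCl, after 2 h binding at 37 °C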
Write the value in OD450 nm as a bare number.

Input line: Give the reported value of OD450 nm for this record: F1.9.19 (antibody, human IgG1, kappa, V domains shown, human-murine chimeric antibody) VH: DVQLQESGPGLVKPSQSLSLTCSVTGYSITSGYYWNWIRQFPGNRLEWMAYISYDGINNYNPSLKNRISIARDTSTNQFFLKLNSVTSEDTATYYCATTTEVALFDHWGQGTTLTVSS VL: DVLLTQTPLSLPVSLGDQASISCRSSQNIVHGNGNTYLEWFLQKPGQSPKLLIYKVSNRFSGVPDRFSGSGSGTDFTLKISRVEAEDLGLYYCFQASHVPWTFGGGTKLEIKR
Output line: 0.06

Input line: Give the reported value of OD450 nm for this record: F1.2.14 (antibody, human IgG1, kappa, V domains shown, human-murine chimeric antibody) VH: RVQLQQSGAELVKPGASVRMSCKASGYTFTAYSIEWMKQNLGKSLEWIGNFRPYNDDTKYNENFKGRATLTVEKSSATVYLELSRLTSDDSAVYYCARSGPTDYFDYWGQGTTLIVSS VL: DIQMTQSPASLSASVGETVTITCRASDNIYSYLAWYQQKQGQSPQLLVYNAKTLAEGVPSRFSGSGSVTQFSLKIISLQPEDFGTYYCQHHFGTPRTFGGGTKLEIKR
Output line: 0.05

Input line: Give the reported value of OD450 nm for this record: F1.118.4 (antibody, human IgG1, kappa, V domains shown, human-murine chimeric antibody) VH: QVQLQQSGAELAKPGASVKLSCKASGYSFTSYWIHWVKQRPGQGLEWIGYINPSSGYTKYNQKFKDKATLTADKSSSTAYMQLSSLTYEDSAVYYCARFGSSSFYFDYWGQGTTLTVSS VL: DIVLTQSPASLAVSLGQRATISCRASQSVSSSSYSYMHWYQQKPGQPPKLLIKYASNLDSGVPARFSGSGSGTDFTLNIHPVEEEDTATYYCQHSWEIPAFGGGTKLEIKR
Output line: 0.04

Input line: Give the reported value of OD450 nm for this record: F4.18.4 (antibody, human IgG1, kappa, V domains shown, human-murine chimeric antibody) VH: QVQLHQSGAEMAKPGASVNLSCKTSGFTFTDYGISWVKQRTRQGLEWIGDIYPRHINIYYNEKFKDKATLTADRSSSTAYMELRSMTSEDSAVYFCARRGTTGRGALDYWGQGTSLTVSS VL: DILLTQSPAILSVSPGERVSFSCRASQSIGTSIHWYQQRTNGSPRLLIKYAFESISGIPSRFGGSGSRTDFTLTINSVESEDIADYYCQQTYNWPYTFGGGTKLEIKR
Output line: 0.03

Input line: Give the reported value of OD450 nm for this record: F3.38.7 (antibody, human IgG1, kappa, V domains shown, human-murine chimeric antibody) VH: QVQLQQSGAELVRPGASVKLSCKASGYTFTDYEIHWVKQTPVLGLEWIGAIDPKTGNTAYNQKFMGKATLTADKSSTTAYMDLRSLTSEDSAVYYCTRYFSFAYWGQGTLVTVSA VL: DVLMTQTPLSLPVSLGDQASISCRSSQTFVHSNGNTYLQWYLQKPGQSPKLLIYKVSNRFSGVPDRFSGSGSGTDFTLKISRVEAEDLGVYYCFQGSHVPYTFGSGTKLEIKR
Output line: 2.57

Input line: Give the reported value of OD450 nm for this record: F1.120.16 (antibody, human IgG1, kappa, V domains shown, human-murine chimeric antibody) VH: EFQLQQSGPELVKPGASVKISCKASGYSFTDYNMNWVKQSNGKSLEWIGLIHPKFSVTSYNRKFKGKATLTVDQSSSTAYMQLNSLTSEDSAVYYCARWAGDYFDYWGQGTTLTVSS VL: DIVLTQSPATLSVTPGDSVSLSCRASQSISNNLHWYQQKSHESPRLLIKYASQSISGIPSRFSGSGSGTDFTLTINSVETEDFGMYFCQQSNSWPQTFGGGTKLEIKR
Output line: 0.04

Input line: Give the reported value of OD450 nm for this record: F1.57.21 (antibody, human IgG1, kappa, V domains shown, human-murine chimeric antibody) VH: QVQLQQSGAELARPGASVKLSCKASGYTFTSYGISWVKQITGQGLEWIGEIYPRSESTYYNEKFKGKATLTADKSSSTAYMELRSLTSEDSAVYFCARDYGNIYSFAYWGQGTLVTVSA VL: DIQMTQSPASLSASVGETVTITCRTSENIYSYLAWYQQKQGKSPQLLVYNAKTLAEGVPSRFSGSGSGTQFSLKINSLQPEDFGSYYCQHHYGTPLTFGAGTKLELKR
Output line: 0.05
